Cited source: BigSolDB 2.1

- condition_set: in methanol, 285.65 K
value_kind: solubility (mole fraction)

### Prompt Reported solubility (mole fraction) for O=S(=O)(c1ccc(O)cc1)c1ccccc1O : what is it?
### Response 0.0612

* * *

- condition_set: in ethyl acetate, 295.65 K
value_kind: solubility (mole fraction)
Form field (numeric): enter value without unit.

### Prompt Fill in: solubility (mole fraction) of O=S(=O)(c1ccc(O)cc1)c1ccccc1O is ___
### Response 0.0501

* * *

- condition_set: in ethyl acetate, 278.15 K
value_kind: solubility (mole fraction)
Give the figure by itself; no unit, no explanation.

### Prompt What value of measured solubility (mole fraction) is listed for O=S(=O)(c1ccc(O)cc1)c1ccccc1O ?
### Response 0.0386

* * *

- condition_set: in acetone, 308.15 K
value_kind: solubility (mole fraction)
Could you keep your reply to the number by itself?

### Prompt What value of solubility (mole fraction) has been recorded for this entry: O=S(=O)(c1ccc(O)cc1)c1ccccc1O
### Response 0.139

* * *

- condition_set: in acetonitrile, 283.15 K
value_kind: solubility (mole fraction)
Response field accepts a number only; no unit should be typed.

### Prompt # query: solubility (mole fraction) of entry O=S(=O)(c1ccc(O)cc1)c1ccccc1O
### Response 0.0121

* * *

- condition_set: in methanol, 310.65 K
value_kind: solubility (mole fraction)
Lab note: record just the number, no unit beside it.

### Prompt What measured solubility (mole fraction) goes with O=S(=O)(c1ccc(O)cc1)c1ccccc1O ?
### Response 0.0809

* * *

- condition_set: in 2-butanone, 308.15 K
value_kind: solubility (mole fraction)
Response field accepts a number only; no unit should be typed.

### Prompt Fill blank: measured solubility (mole fraction) of the molecule O=S(=O)(c1ccc(O)cc1)c1ccccc1O is ____.
### Response 0.127

* * *

- condition_set: in n-butanol, 295.65 K
value_kind: solubility (mole fraction)
Respond with the number and no other words.

### Prompt Need solubility (mole fraction), item O=S(=O)(c1ccc(O)cc1)c1ccccc1O
### Response 0.0658

* * *

- condition_set: in methanol, 293.15 K
value_kind: solubility (mole fraction)
Provide a numeric answer; units are not to be included.

### Prompt Sample O=S(=O)(c1ccc(O)cc1)c1ccccc1O — what was its solubility (mole fraction)?
### Response 0.0661

* * *

- condition_set: in 1,4-dioxane, 305.65 K
value_kind: solubility (mole fraction)

### Prompt Name the recorded solubility (mole fraction) for O=S(=O)(c1ccc(O)cc1)c1ccccc1O .
### Response 0.0611

* * *

- condition_set: in ethyl acetate, 280.65 K
value_kind: solubility (mole fraction)
The reply should be a number, written without any unit.

### Prompt What solubility (mole fraction) value was documented for this compound, O=S(=O)(c1ccc(O)cc1)c1ccccc1O ?
### Response 0.0402

* * *

- condition_set: in 1,4-dioxane, 310.65 K
value_kind: solubility (mole fraction)
Write the number on its own, no unit after it.

### Prompt Which measured solubility (mole fraction) value corresponds to O=S(=O)(c1ccc(O)cc1)c1ccccc1O ?
### Response 0.0713

* * *

- condition_set: in ethyl acetate, 285.65 K
value_kind: solubility (mole fraction)
Quick one: just the number, no unit, thanks!

### Prompt Entry O=S(=O)(c1ccc(O)cc1)c1ccccc1O : reported solubility (mole fraction) = ?
### Response 0.0432

* * *

- condition_set: in acetone, 278.15 K
value_kind: solubility (mole fraction)
Lab note: record the figure alone, no unit after it.

### Prompt Which measured solubility (mole fraction) value corresponds to O=S(=O)(c1ccc(O)cc1)c1ccccc1O ?
### Response 0.106

* * *

- condition_set: in isopropanol, 300.65 K
value_kind: solubility (mole fraction)

### Prompt # get_value(readout='solubility (mole fraction)', item= O=S(=O)(c1ccc(O)cc1)c1ccccc1O )
### Response 0.0925

* * *

- condition_set: in acetonitrile, 293.15 K
value_kind: solubility (mole fraction)
Please give the numeric answer without any surrounding text.

### Prompt I am curious: what solubility (mole fraction) value has been reported for O=S(=O)(c1ccc(O)cc1)c1ccccc1O ?
### Response 0.0169

* * *

- condition_set: in ethyl acetate, 308.15 K
value_kind: solubility (mole fraction)
Just the number, please, no unit attached.

### Prompt Using the record for O=S(=O)(c1ccc(O)cc1)c1ccccc1O , report its solubility (mole fraction).
### Response 0.0609

* * *

- condition_set: in 2-butanone, 278.15 K
value_kind: solubility (mole fraction)
Answer with a bare number; do not write a unit.

### Prompt # lookup: solubility (mole fraction) of O=S(=O)(c1ccc(O)cc1)c1ccccc1O
### Response 0.101

* * *

- condition_set: in isopropanol, 313.15 K
value_kind: solubility (mole fraction)
// keep it numeric: no unit symbol after the value

### Prompt Fill in: solubility (mole fraction) of O=S(=O)(c1ccc(O)cc1)c1ccccc1O is ___
### Response 0.113

* * *

- condition_set: in 2-butanone, 288.15 K
value_kind: solubility (mole fraction)

### Prompt Entry O=S(=O)(c1ccc(O)cc1)c1ccccc1O : reported solubility (mole fraction) = ?
### Response 0.109
